Origin of measurements: the supplement of paper PMC9112550

- System: Escherichia coli TOP10
- testProtocol: shrunken log2 fold change of peptide-encoding DNA abundance (4.5 h post-induction vs induction); higher = less antimicrobial activity (less host growth inhibition)
- experimentalSetup: time post-induction: 4.5 h; library: site-saturation at positions 5, 18, 19, 20
Categories are assigned from the measured shrunken log2 fold change using these intervals: low: < -0.2; medium: ≥ -0.2 and < 0.1; high: ≥ 0.1

| seq | assignedLabel |
| --- | --- |
| RRIRQRPPRLPRPRPRPRKSPRP | medium |
| RRIRQRPPRLPRPRPRPYDSPRP | medium |
| RRIRNRPPRLPRPRPRPDWQPRP | high |
| RRIRERPPRLPRPRPRPANQPRP | medium |
| RRIRMRPPRLPRPRPRPNHHPRP | low |
| RRIRPRPPRLPRPRPRPMDSPRP | medium |
| RRIRSRPPRLPRPRPRPEKDPRP | high |
| RRIRVRPPRLPRPRPRPKITPRP | low |
| RRIRQRPPRLPRPRPRPQRDPRP | medium |

====

- Test system: Escherichia coli TOP10
- testProtocol: shrunken log2 fold change of peptide-encoding DNA abundance (4.5 h post-induction vs induction); higher = less antimicrobial activity (less host growth inhibition)
- experimentalSetup: time post-induction: 4.5 h; library: site-saturation at positions 5, 18, 19, 20
Listing of entries alongside the reported shrunken log2 fold change.
quantityName: shrunken log2 fold change

| seq | measuredTarget | reported |
| --- | --- | --- |
| RRIRVRPPRLPRPRPRPCINPRP | Escherichia coli TOP10 | 0.0189 |
| RRIRHRPPRLPRPRPRPQTYPRP | Escherichia coli TOP10 | -0.193 |
| RRIRKRPPRLPRPRPRPMGSPRP | Escherichia coli TOP10 | 0.0567 |
| RRIRHRPPRLPRPRPRPQIMPRP | Escherichia coli TOP10 | -0.682 |
| RRIRNRPPRLPRPRPRPKHEPRP | Escherichia coli TOP10 | 0.13 |
| RRIRLRPPRLPRPRPRPPWQPRP | Escherichia coli TOP10 | 0.594 |
| RRIRYRPPRLPRPRPRPQNCPRP | Escherichia coli TOP10 | -0.0075 |
| RRIRGRPPRLPRPRPRPGVCPRP | Escherichia coli TOP10 | 0.892 |
| RRIRYRPPRLPRPRPRPWCMPRP | Escherichia coli TOP10 | -0.383 |
| RRIRSRPPRLPRPRPRPLKNPRP | Escherichia coli TOP10 | -0.347 |
| RRIRERPPRLPRPRPRPAQMPRP | Escherichia coli TOP10 | 0.392 |
| RRIRRRPPRLPRPRPRPWYQPRP | Escherichia coli TOP10 | -3.03 |
| RRIRVRPPRLPRPRPRPSVKPRP | Escherichia coli TOP10 | -0.155 |
| RRIRLRPPRLPRPRPRPTPHPRP | Escherichia coli TOP10 | 0.322 |
| RRIRNRPPRLPRPRPRPVSNPRP | Escherichia coli TOP10 | -0.00917 |
| RRIRNRPPRLPRPRPRPWSSPRP | Escherichia coli TOP10 | -0.0666 |
| RRIRDRPPRLPRPRPRPWSYPRP | Escherichia coli TOP10 | -1.29 |
| RRIRARPPRLPRPRPRPIFFPRP | Escherichia coli TOP10 | 0.388 |
| RRIRLRPPRLPRPRPRPFINPRP | Escherichia coli TOP10 | -0.572 |
| RRIRSRPPRLPRPRPRPIEPPRP | Escherichia coli TOP10 | 0.0268 |
| RRIRARPPRLPRPRPRPTFYPRP | Escherichia coli TOP10 | -0.00745 |
| RRIRVRPPRLPRPRPRPISIPRP | Escherichia coli TOP10 | -0.133 |

====

Listing of entries alongside the reported shrunken log2 fold change.
- Test system: Escherichia coli TOP10
- testProtocol: shrunken log2 fold change of peptide-encoding DNA abundance (4.5 h post-induction vs induction); higher = less antimicrobial activity (less host growth inhibition)
- experimentalSetup: time post-induction: 4.5 h; library: site-saturation at positions 5, 18, 19, 20

| seq | shrunken log2 fold change |
| --- | --- |
| RRIRARPPRLPRPRPRPAEMPRP | -0.0298 |
| RRIRARPPRLPRPRPRPCKQPRP | -0.0572 |
| RRIRHRPPRLPRPRPRPMPGPRP | -0.0235 |
| RRIRARPPRLPRPRPRPPEEPRP | 1.73 |
| RRIRKRPPRLPRPRPRPEDGPRP | 1.9 |
| RRIRSRPPRLPRPRPRPICSPRP | 0.119 |
| RRIRSRPPRLPRPRPRPELNPRP | 0.399 |
| RRIRFRPPRLPRPRPRPIAQPRP | -0.0298 |
| RRIRMRPPRLPRPRPRPMDFPRP | -0.00448 |
| RRIRFRPPRLPRPRPRPGEYPRP | -0.114 |
| RRIRCRPPRLPRPRPRPKMYPRP | -0.342 |
| RRIRMRPPRLPRPRPRPYNGPRP | -0.289 |
| RRIRCRPPRLPRPRPRPSGNPRP | -0.598 |
| RRIRNRPPRLPRPRPRPAKGPRP | -0.051 |
| RRIRERPPRLPRPRPRPHYTPRP | -0.615 |
| RRIRFRPPRLPRPRPRPLSMPRP | -0.363 |
| RRIRFRPPRLPRPRPRPLATPRP | -0.00506 |
| RRIRNRPPRLPRPRPRPPAQPRP | 0.314 |
| RRIRIRPPRLPRPRPRPRVAPRP | 0.386 |
| RRIRERPPRLPRPRPRPMIQPRP | -0.176 |
| RRIRVRPPRLPRPRPRPSSVPRP | -0.529 |
| RRIRMRPPRLPRPRPRPAHAPRP | 1.16 |
| RRIRRRPPRLPRPRPRPQGLPRP | 0.143 |
| RRIRCRPPRLPRPRPRPGEAPRP | 0.449 |
| RRIRMRPPRLPRPRPRPRSVPRP | 0.871 |
| RRIRGRPPRLPRPRPRPQRKPRP | 0.471 |
| RRIRSRPPRLPRPRPRPHSNPRP | -0.358 |
| RRIRYRPPRLPRPRPRPEQSPRP | 0.0157 |
| RRIRGRPPRLPRPRPRPNVSPRP | -0.0528 |
| RRIRMRPPRLPRPRPRPYGFPRP | -0.00952 |
| RRIRVRPPRLPRPRPRPWPLPRP | -0.183 |
| RRIRTRPPRLPRPRPRPIIGPRP | 0.0211 |
| RRIRFRPPRLPRPRPRPWIKPRP | -0.187 |
| RRIRYRPPRLPRPRPRPSLIPRP | -1.15 |
| RRIRKRPPRLPRPRPRPSHNPRP | -0.351 |
| RRIRPRPPRLPRPRPRPEETPRP | -0.131 |
| RRIRQRPPRLPRPRPRPYCTPRP | -0.863 |
| RRIRCRPPRLPRPRPRPEHAPRP | 0.999 |
| RRIRERPPRLPRPRPRPSDQPRP | -1.5 |
| RRIRRRPPRLPRPRPRPAYAPRP | -0.0409 |
| RRIRARPPRLPRPRPRPKAQPRP | 1.26 |
| RRIRYRPPRLPRPRPRPPVSPRP | -0.378 |
| RRIRIRPPRLPRPRPRPHWYPRP | -1.16 |
| RRIRGRPPRLPRPRPRPWVHPRP | -0.0245 |
| RRIRRRPPRLPRPRPRPFGMPRP | -0.0784 |
| RRIRCRPPRLPRPRPRPSCCPRP | 0.0437 |
| RRIRIRPPRLPRPRPRPRVQPRP | 0.0871 |
| RRIRMRPPRLPRPRPRPPSTPRP | 0.97 |
| RRIRRRPPRLPRPRPRPQKFPRP | -0.0996 |
| RRIRLRPPRLPRPRPRPQYPPRP | -0.765 |
| RRIRQRPPRLPRPRPRPTIEPRP | 0.0419 |
| RRIRPRPPRLPRPRPRPDPGPRP | 0.0845 |
| RRIRGRPPRLPRPRPRPSQKPRP | 0.0248 |
| RRIRSRPPRLPRPRPRPAPTPRP | 0.732 |
| RRIRWRPPRLPRPRPRPIVAPRP | 0.541 |

====

Listing of entries alongside the reported shrunken log2 fold change.
- Test system: Escherichia coli TOP10;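 note: peptides expressed intracellularly from a pBAD plasmid library in pooled LB shake-flask culture, induced with 0.3% L-arabinose, DNA abundance read by NGS, three biological replicates, DESeq2 with apeglm shrinkage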
- testProtocol: shrunken log2 fold change of peptide-encoding DNA abundance (4.5 h post-induction vs induction); higher = less antimicrobial activity (less host growth inhibition)
- experimentalSetup: time post-induction: 4.5 h; library: site-saturation at positions 5, 18, 19, 20

| seq | shrunken log2 fold change |
| --- | --- |
| RRIRWRPPRLPRPRPRPAWNPRP | 0.155 |
| RRIRTRPPRLPRPRPRPYLIPRP | -0.183 |
| RRIRIRPPRLPRPRPRPFQWPRP | -0.192 |
| RRIRHRPPRLPRPRPRPVAHPRP | -0.00816 |
| RRIRDRPPRLPRPRPRPKTYPRP | -0.227 |
| RRIRDRPPRLPRPRPRPCPQPRP | -0.132 |
| RRIRERPPRLPRPRPRPHHDPRP | -0.578 |
| RRIRMRPPRLPRPRPRPDTWPRP | 0.34 |
| RRIRVRPPRLPRPRPRPQDLPRP | -0.0193 |
| RRIRSRPPRLPRPRPRPDTMPRP | -0.462 |
| RRIRSRPPRLPRPRPRPLGQPRP | -0.0571 |
| RRIRARPPRLPRPRPRPISIPRP | -0.439 |
| RRIRVRPPRLPRPRPRPKMKPRP | 0.839 |
| RRIRDRPPRLPRPRPRPSDCPRP | -0.482 |
| RRIRIRPPRLPRPRPRPWCTPRP | -0.757 |
| RRIRYRPPRLPRPRPRPVRVPRP | 0.0746 |
| RRIRNRPPRLPRPRPRPRIGPRP | 0.0705 |
| RRIRNRPPRLPRPRPRPYDQPRP | -0.37 |
| RRIRHRPPRLPRPRPRPMLEPRP | 0.0721 |
| RRIRFRPPRLPRPRPRPLMIPRP | -0.266 |
| RRIRRRPPRLPRPRPRPPVHPRP | 0.197 |
| RRIRARPPRLPRPRPRPQQIPRP | 0.218 |
| RRIRYRPPRLPRPRPRPNEHPRP | -0.268 |
| RRIRNRPPRLPRPRPRPSKPPRP | -0.399 |
| RRIRRRPPRLPRPRPRPSREPRP | 0.962 |
| RRIRNRPPRLPRPRPRPGPFPRP | 0.00962 |
| RRIRGRPPRLPRPRPRPNPFPRP | 0.189 |
| RRIRDRPPRLPRPRPRPRYYPRP | -0.175 |
| RRIRMRPPRLPRPRPRPQAFPRP | 0.0522 |
| RRIRARPPRLPRPRPRPDFQPRP | 0.149 |
| RRIRLRPPRLPRPRPRPPCNPRP | -0.126 |
